biological target: Kras and SOS1 (biotin-tagged human Kras loaded with GDP, His-tagged human SOS1) (Homo sapiens, UniProt P01116, G12D); construct: made in house; host or cells: E. coli (stated for Kras only); assay: Protein-protein interaction inhibition between Kras and SOS1 (KrasGl2D-SOS PPI) using AlphaScreen; assay type: binding; details: AlphaScreen; biotin-tagged human Kras loaded with GDP, His-tagged human SOS1; read-out: KRAS G12D-SOS PPI IC50
Sequence (P01116 1-188 isoform P01116-2 G12D): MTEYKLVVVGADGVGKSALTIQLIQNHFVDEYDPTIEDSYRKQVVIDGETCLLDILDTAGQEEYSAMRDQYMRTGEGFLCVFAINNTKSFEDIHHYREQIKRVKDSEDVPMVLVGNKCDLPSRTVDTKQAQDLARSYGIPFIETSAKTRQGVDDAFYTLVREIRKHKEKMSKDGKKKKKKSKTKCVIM
Starred links: 1 amine or outer side, 2 acyl side, 3 side chain; linkers in the order of their positions; H or OH if unused. Positions of bridges follow the written chain, without caps; N, C: chain ends. Non-standard residues stand in square brackets, D forms with d. Residues, ends and D or L forms follow the SMILES beside them. *: point of attachment. hPhe(3-Cl-4-CF3) = N[C@@H](CCc1ccc(C(F)(F)F)c(Cl)c1)C(=O)O; NMePhe(3-CF3) = CN[C@@H](Cc1cccc(C(F)(F)F)c1)C(=O)O; Piperazinyl(4-(3-oxetanyl)) = C1OCC1N1CCN(*)CC1; NMePhe(4-Me) = CN[C@@H](Cc1ccc(C)cc1)C(=O)O; NMePhe(3-I) = CN[C@@H](Cc1cccc(I)c1)C(=O)O; hPhe(3-Cl) = N[C@@H](CCc1cccc(Cl)c1)C(=O)O; NMedβ3hAla = C[C@H](CC(=O)[*:2])N(C)[*:1]; NMeGly(cPent) = CN[C@H](C(=O)O)C1CCCC1; NMeCha = CN[C@@H](CC1CCCCC1)C(=O)O; Ala(cPr) = N[C@@H](CC1CC1)C(=O)O; NMeChg = CN[C@H](C(=O)O)C1CCCCC1; NMeI = CC[C@H](C)[C@H](NC)C(=O)O; NMeD = CN[C@@H](CC(=O)O)C(=O)O; NMeL = CN[C@@H](CC(C)C)C(=O)O; NMeV = CN[C@H](C(=O)O)C(C)C; d(β3hA) = C[C@@H](N)CC(=O)O; NMeA = CN[C@@H](C)C(=O)O; Piperidide = C1CCN(*)CC1; Ac5c = NC1(C(=O)O)CCCC1; Aze = O=C(O)[C@@H]1CCN1; Nleu = CC(C)CNCC(=O)O; Sar = CNCC(=O)O
Examples of compounds with documented log10 IC50 follow.
Measure name: log10 IC50 (log10 of the value in nM)

Compound	log10 IC50
CC[C@H](C)[C@@H]1NC(=O)[C@H](CC(C)C)N(C)C(=O)C[C@@H](C)NC(=O)[C@H](C(C)C)N(C)C(=O)C2(CCCC2)NC(=O)[C@@H]2CCCN2C(=O)[C@H](CCc2ccc(C(F)(F)F)c(Cl)c2)NC(=O)CN(C)C(=O)[C@H](CC2CCCCC2)N(C)C(=O)CN(C)C(=O)CN(CC(C)C)C1=O [Compound 970] (cyclo([Ac5c][NMeV][d(β3hA)][NMeL]I[Nleu][Sar][NMeCha][Sar][hPhe(3-Cl-4-CF3)]P))	2.40
CC[C@H](C)[C@@H]1NC(=O)[C@H](CC(C)C)N(C)C(=O)C[C@@H](C(=O)N2CCCCC2)N(C)C(=O)[C@H](C(C)C)N(C)C(=O)C2(CCCC2)NC(=O)[C@@H]2CCCN2C(=O)[C@H](CCc2ccc(C(F)(F)F)c(Cl)c2)NC(=O)CN(C)C(=O)[C@H](Cc2cccc(C(F)(F)F)c2)N(C)C(=O)CN(C)C(=O)CN(C)C1=O [Compound 1555] ([NMeL]I[Sar][Sar][NMePhe(3-CF3)][Sar][hPhe(3-Cl-4-CF3)]P[Ac5c][NMeV][NMeD]-Piperidide; lactam N-11)	0.79
CC[C@H](C)[C@@H]1NC(=O)[C@H](CC(C)C)N(C)C(=O)C[C@@H](C)N(C)C(=O)[C@H]([C@@H](C)CC)N(C)C(=O)C2(CCCC2)NC(=O)[C@@H]2CCCN2C(=O)[C@H](CCc2ccc(C(F)(F)F)c(Cl)c2)NC(=O)CN(C)C(=O)[C@H](CC2CCCCC2)N(C)C(=O)CN(C)C(=O)CN(C)C1=O [Compound 904] (cyclo([Ac5c][NMeI][NMedβ3hAla][NMeL]I[Sar][Sar][NMeCha][Sar][hPhe(3-Cl-4-CF3)]P))	0.86
CC(C)C[C@H]1C(=O)N[C@@H](CC2CC2)C(=O)N(C)CC(=O)N(C)CC(=O)N(C)[C@@H](CC2CCCCC2)C(=O)N(C)CC(=O)N[C@@H](CCc2ccc(C(F)(F)F)c(Cl)c2)C(=O)N2CCC[C@H]2C(=O)NC2(CCCC2)C(=O)N(C)[C@@H](C(C)C)C(=O)N[C@H](C)CC(=O)N1C [Compound 550] (cyclo([Ac5c][NMeV][d(β3hA)][NMeL][Ala(cPr)][Sar][Sar][NMeCha][Sar][hPhe(3-Cl-4-CF3)]P))	2.04
CC[C@H](C)[C@@H]1NC(=O)[C@H](CC(C)C)N(C)C(=O)C[C@@H](C(=O)N2CCN(C3COC3)CC2)N(C)C(=O)[C@H](C(C)C)N(C)C(=O)C2(CCCC2)NC(=O)[C@@H]2CCCN2C(=O)[C@H](CCc2ccc(C(F)(F)F)c(Cl)c2)NC(=O)CN(C)C(=O)[C@H](CC2CCCCC2)N(C)C(=O)[C@@H]2CCN2C(=O)[C@H](C)N(C)C1=O [Compound 1181] ([NMeL]I[NMeA][Aze][NMeCha][Sar][hPhe(3-Cl-4-CF3)]P[Ac5c][NMeV][NMeD]-{Piperazinyl(4-(3-oxetanyl))}; lactam N-11)	0.78
CC[C@H](C)[C@@H]1NC(=O)[C@H](CC(C)C)N(C)C(=O)C[C@@H](C)NC(=O)[C@H](C2CCCC2)N(C)C(=O)C2(CCCC2)NC(=O)[C@@H]2CCCN2C(=O)[C@H](CCc2ccc(C(F)(F)F)c(Cl)c2)NC(=O)CN(C)C(=O)[C@H](Cc2ccc(C)cc2)N(C)C(=O)[C@@H]2CCN2C(=O)CN(C)C1=O [Compound 1500] (cyclo([Ac5c][NMeGly(cPent)][d(β3hA)][NMeL]I[Sar][Aze][NMePhe(4-Me)][Sar][hPhe(3-Cl-4-CF3)]P))	0.59
CC[C@H](C)[C@@H]1NC(=O)[C@H](CC(C)C)N(C)C(=O)C[C@@H](C(=O)N(C)C)N(C)C(=O)[C@H]([C@@H](C)CC)N(C)C(=O)C2(CCCC2)NC(=O)[C@H](Cc2cccc(I)c2)N(C)C(=O)[C@H](CCc2ccc(C(F)(F)F)c(Cl)c2)NC(=O)CN(C)C(=O)[C@H](Cc2ccc(C)cc2)N(C)C(=O)[C@@H]2CCN2C(=O)[C@H](C)N(C)C1=O [Compound 1910] ([NMeL]I[NMeA][Aze][NMePhe(4-Me)][Sar][hPhe(3-Cl-4-CF3)][NMePhe(3-I)][Ac5c][NMeI][NMeD]-NMe2; lactam N-11)	1.78
CC[C@H](C)[C@@H]1NC(=O)[C@H](C)N(C)C(=O)C[C@@H](C(=O)N2CCCCC2)N(C)C(=O)[C@H](C2CCCCC2)N(C)C(=O)C2(CCCC2)NC(=O)[C@@H]2CCCN2C(=O)[C@H](CCc2cccc(Cl)c2)NC(=O)CN(C)C(=O)[C@H](CC2CCCCC2)N(C)C(=O)CN(C)C(=O)CN(C)C1=O [Compound 954] ([NMeA]I[Sar][Sar][NMeCha][Sar][hPhe(3-Cl)]P[Ac5c][NMeChg][NMeD]-Piperidide; lactam N-11)	0.28
CC[C@H](C)[C@@H]1NC(=O)[C@H](CC(C)C)N(C)C(=O)C[C@@H](C(=O)N(C)C)N(C)C(=O)[C@H]([C@@H](C)CC)N(C)C(=O)C2(CCCC2)NC(=O)[C@@H]2CCCN2C(=O)[C@H](CCc2ccc(C(F)(F)F)c(Cl)c2)NC(=O)CN(C)C(=O)[C@H](Cc2ccc(C)cc2)N(C)C(=O)CN(C)C(=O)CN(C)C1=O [Compound 1836] ([NMeL]I[Sar][Sar][NMePhe(4-Me)][Sar][hPhe(3-Cl-4-CF3)]P[Ac5c][NMeI][NMeD]-NMe2; lactam N-11)	-0.33

* * *

Each item that follows carries a reported pIC50.
target: Kras and SOS1 (biotin-tagged human Kras loaded with GDP, His-tagged human SOS1) (Homo sapiens, UniProt P01116, G12D); construct: made in house; host or cells: E. coli (stated for Kras only); assay: Protein-protein interaction inhibition between Kras and SOS1 (KrasGl2D-SOS PPI) using AlphaScreen; type: binding; conditions: AlphaScreen; biotin-tagged human Kras loaded with GDP, His-tagged human SOS1; read-out: KRAS G12D-SOS PPI IC50
pIC50: −log10 of the molar value. Starred links: 1 amine or outer side, 2 acyl side, 3 side chain; linkers in the order of their positions; H or OH if unused. Positions of bridges follow the written chain, without caps; N, C: chain ends. Non-standard residues stand in square brackets, D forms with d. Residues, ends and D or L forms follow the SMILES beside them. *: point of attachment. hPhe(3-Cl-4-CF3) = N[C@@H](CCc1ccc(C(F)(F)F)c(Cl)c1)C(=O)O; hPhe(4-CF3) = N[C@@H](CCc1ccc(C(F)(F)F)cc1)C(=O)O; NMedβ3hAla = C[C@H](CC(=O)[*:2])N(C)[*:1]; NMeCha = CN[C@@H](CC1CCCCC1)C(=O)O; NMeD = CN[C@@H](CC(=O)O)C(=O)O; NMeL = CN[C@@H](CC(C)C)C(=O)O; NMeV = CN[C@H](C(=O)O)C(C)C; NMeS = CN[C@@H](CO)C(=O)O; NMeA = CN[C@@H](C)C(=O)O; Piperidide = C1CCN(*)CC1; Aze = O=C(O)[C@@H]1CCN1; Thp = NC1(C(=O)O)CCOCC1; CH2CMe2OH = CC(C)(O)C*; Aib = CC(C)(N)C(=O)O; Isopentyl = CC(C)CC*; NEtG = CCNCC(=O)O; Sar = CNCC(=O)O

Compound	pIC50
CC[C@H](C)[C@@H]1NC(=O)[C@H](CC(C)C)N(C)C(=O)C[C@@H](C(=O)N2CCCCC2)N(C)C(=O)[C@H](C(C)C)N(C)C(=O)C(C)(C)NC(=O)[C@@H]2CCCN2C(=O)[C@H](CCc2ccc(C(F)(F)F)c(Cl)c2)NC(=O)CN(C)C(=O)[C@H](CC2CCCCC2)N(C)C(=O)[C@@H]2CCN2C(=O)[C@H](C)N(C)C1=O [Compound 1751] ([NMeL]I[NMeA][Aze][NMeCha][Sar][hPhe(3-Cl-4-CF3)]P[Aib][NMeV][NMeD]-Piperidide; lactam N-11)	8.14
CC[C@H](C)[C@@H]1NC(=O)[C@H](CC(C)C)N(C)C(=O)C[C@@H](C(=O)N2CCCCC2)N(C)C(=O)[C@H](CC(C)C)N(C)C(=O)C(C)(C)NC(=O)[C@H](COCC(C)(C)O)N(C)C(=O)[C@H](CCc2ccc(C(F)(F)F)cc2)NC(=O)CN(C)C(=O)[C@H](COCCC(C)C)N(C)C(=O)CN(C)C(=O)CN(CC)C1=O [Compound 1528] ([NMeL]I[NEtG][Sar][NMeS](Isopentyl)[Sar][hPhe(4-CF3)][NMeS](CH2CMe2OH)[Aib][NMeL][NMeD]-Piperidide; lactam N-11)	7.39
CC[C@H](C)[C@@H]1NC(=O)[C@H](CC(C)C)N(C)C(=O)C[C@@H](C)N(C)C(=O)[C@H](CC(C)C)N(C)C(=O)C2(CCOCC2)NC(=O)[C@@H]2CCCN2C(=O)[C@H](CCc2ccc(C(F)(F)F)c(Cl)c2)NC(=O)CN(C)C(=O)[C@H](CC2CCCCC2)N(C)C(=O)CN(C)C(=O)CN(C)C1=O [Compound 742] (cyclo(I[Sar][Sar][NMeCha][Sar][hPhe(3-Cl-4-CF3)]P[Thp][NMeL][NMedβ3hAla][NMeL]))	7.77
